From: PubChem BioAssay (NCI)

System: SW-620 colon
Assay: NCI tumour cell line growth inhibition, 48 h
Each record here notes measured TGI.
measure: TGI

compound=Cc1cc(NCCCCNc2ccnc3cc(Cl)ccc23)nc(Nc2ccc(C(=O)N3CCCC3)cc2)n1 system_name="SW-620 colon" value_observed="3.5 µM"
compound=BrCCC[P+](c1ccccc1)(c1ccccc1)c1ccccc1 system_name="SW-620 colon" value_observed="> 100 µM"
compound="O/N=C1/CCCCCC1NO (stereo not drawn)" system_name="SW-620 colon" value_observed="> 100 µM"

---

Tested on: RPMI-8226 leukemia
Assay: NCI tumour cell line growth inhibition, 48 h
Each record here notes measured TGI.
measure: TGI

molecule_smiles=CC(=O)N1CC[N+](C)(CCCCN2c3ccccc3Sc3cc(N=[N+]=[N-])ccc32)CC1 measure=TGI value_observed="> 100 µM"
molecule_smiles=O=c1oc2cccnc2n1CCN1CCN(c2ccc(Oc3ccccc3)cc2)CC1 measure=TGI value_observed="> 100 µM"
molecule_smiles=N#Cc1c(NC(=O)c2cccc3ccccc23)sc2c1CCCC2 measure=TGI value_observed="> 25 µM"

---

Tested on: CCRF-CEM leukemia
Experiment: NCI tumour cell line growth inhibition, 48 h
Each record here notes measured TGI.
measure: TGI

compound=Cn1cnc([N+](=O)[O-])c1SC1=NCCS1 measure=TGI value_observed="> 100 µM"
compound=CCCCCCCCCCCCCCCCOC(=O)c1c(C)[nH]c(/C=C2\N=C(c3ccc[nH]3)C=C2OC)c1C measure=TGI value_observed="> 100 µM"
compound="Clc1ccc2c(c1)CC1C[N+]3=C(CCCC3)C1=C2 (centres undefined)" measure=TGI value_observed="> 100 µM"
compound=CN(C)c1ccc(/C=C/c2ccnc3ccccc23)cc1N measure=TGI value_observed="> 100 µM"
compound=O=C(N/N=c1/ccoc2cccnc12)N1CCN(c2ncccn2)CC1 measure=TGI value_observed="> 54.4 µM"
compound="CC(=O)NC(CCCCNC(=O)OC(C)(C)C)C(=O)O (centres undefined)" measure=TGI value_observed="> 100 µM"
compound=O=C1NC(N/N=C/c2ccccc2)=N/C1=C\c1cccs1 measure=TGI value_observed="> 75.8 µM"
compound=CN(C)CCCNC(=O)c1cc(NC(=O)c2cc(NC(=O)[C@H]3C[C@@H]3C(=O)Nc3cc(C(=O)Nc4cc(C(=O)NCCCN(C)C)n(C)c4)n(C)c3)cn2C)cn1C measure=TGI value_observed="> 100 µM"
compound=CC(C)=CCc1ccc(O)c(=O)cc1C(C)C measure=TGI value_observed="> 100 µM"

---

Test system: SK-MEL-2 melanoma
Assay: NCI tumour cell line growth inhibition, 48 h
Each record here notes measured TGI.
measure: TGI

compound=Cn1c(=O)c2c(ncn2CCSS(=O)(=O)O)n(C)c1=O value_observed="> 100 µM"
compound="CN(C)CS/C(N)=N\\C(O)C(Cl)(Cl)Cl (stereo not drawn)" value_observed="> 100 µM"
compound=Cn1c(=O)c2nc3nnc(C#N)c(N)n3c2n(C)c1=O value_observed="> 100 µM"

---

Each record here notes measured TGI.
System: SK-MEL-28 melanoma
Assay: NCI tumour cell line growth inhibition, 48 h
measure: TGI

compound=O=c1c2ccccc2c2c1c1c3ccccc3c(=O)c1c1c3ccccc3c(=O)c21 value_observed="> 100 µM"
compound=CC(=O)O[C@H]1[C@H](OC(C)=O)[C@@H](CN=[N+]=[N-])OCO[C@@H]1CN=[N+]=[N-] value_observed="> 100 µM"
compound=N#CC(C#N)=Cc1ccc(C=C2SC3=C(SCCS3)S2)s1 value_observed="> 100 µM"
compound="N#CCc1ccc(/C(C#N)=C2/OC(=N)C(c3ccc(CC#N)cc3)C2=O)cc1 (stereo unspecified)" value_observed="> 100 µM"
compound="O=C1c2ccccc2C(=O)C2C3c4ccccc4C(c4ccccc43)C12 (stereo unspecified)" value_observed="> 100 µM"
compound=Cc1ccc([N+](=O)[O-])cc1NC(=O)C(=O)Cc1cc(=O)oc2cc(O)ccc12 value_observed="> 100 µM"
compound=c1ccc(SC(Sc2ccccc2)c2ccc3c(c2)OCO3)cc1 value_observed="> 100 µM"
compound=COC(=O)c1cc(-c2ccc(-c3ccc(O)cc3)cc2)cc(-c2ccc(-c3ccc(O)cc3)cc2)c1 value_observed="25.7 µM"
compound=N#CCCN(CCC#N)c1ccc(/C=N\c2nc(-c3ccccc3)cs2)cc1 value_observed="> 100 µM"
compound="CC(=O)OC1(C#N)CC2OC1C1C2N1C(=O)OC(C)(C)C (stereo unspecified)" value_observed="> 100 µM"
compound=O=C(N/N=C/C=C/c1ccc([N+](=O)[O-])o1)c1ccc(Br)s1 value_observed="52.3 µM"
compound=COc1cc(/C=C/c2sc3ccccc3[n+]2C)ccc1N(C)C value_observed="25.7 µM"
compound="NC(CCCNc1cccc(O)c1)C(=O)O (stereo unspecified)" value_observed="> 100 µM"
compound=COc1cc(CNC(=O)[C@H](Cc2ccc(O)cn2)NC(C)=O)cc(OC)c1 value_observed="> 100 µM"
compound=Cc1ccc(S(=O)(=O)N/N=C/c2oc(-c3ccccc3Cl)c(-c3ccccc3Cl)c2[N+](=O)[O-])cc1 value_observed="62.9 µM"
compound=COc1ccc(-c2oc3cc(OC)c(OC)c(OC)c3c(=O)c2OC)cc1OC value_observed="> 100 µM"
compound=C=C(CN(C)C)C(=O)c1cc(C)ccc1C value_observed="42.5 µM"
compound="O=C(CC(O)c1ccncc1)c1ccccc1 (stereo unspecified)" value_observed="70.4 µM"
compound=CCOC(=O)/C=C(\C(=O)OCC)n1cnc2c(N)ncnc21 value_observed="27.8 µM"
compound=C=CCOC(=O)CCCCCCCCCCCCCCCOC(=O)c1c(CCC[C@@H](C)O[Si](C)(C)C(C)(C)C)nc(=O)n2c1CC[C@H]2CC1(CC/C=C\[C@H](CC)O[Si](C(C)C)(C(C)C)C(C)C)OCCO1 value_observed="> 100 µM"
compound=Cc1nc2c(n1CCC(C)C)C(=O)c1ccccc1C2=O value_observed="38.8 µM"
compound=COc1cc2c(oc(=O)c3cc4ccoc4c(OC)c32)c2cccc(O)c12 value_observed="> 100 µM"
compound=COc1cc(/C=C/C(=O)C(C(=O)/C=C/c2ccc(OC(=O)CCNc3nnc(C)s3)c(OC)c2)C(=O)CCNc2nnc(C)s2)ccc1OC(=O)CCNc1nnc(C)s1 value_observed="4.02 µM"
compound=COc1cc(-c2c3c([nH]c(=O)c2C#N)-c2cc([N+](=O)[O-])ccc2CCC3)cc(OC)c1OC value_observed="> 100 µM"
compound=O=C(O)c1cncc(C(=O)O)c1 value_observed="> 100 µM"
compound=CCCN1CN(c2ccccc2)C2(CCN(CCCC(=O)c3ccc(F)cc3)CC2)C1=O value_observed="34.3 µM"

---

Each record here notes measured TGI.
Tested on: MALME-3M melanoma
Assay: NCI tumour cell line growth inhibition, 48 h
measure: TGI

compound=C=CCOC(=O)CCCCCCCCCCCCCCCOC(=O)c1c(CCC[C@@H](C)O[Si](C)(C)C(C)(C)C)nc(=O)n2c1CC[C@H]2CC1(CC/C=C\[C@H](CC)O[Si](C(C)C)(C(C)C)C(C)C)OCCO1 system_name="MALME-3M melanoma" measure=TGI value_observed="> 100 µM"
compound=O=C(O)/C=C/c1cnc[nH]1 system_name="MALME-3M melanoma" measure=TGI value_observed="> 500 µM"
compound=c1ccc(SC(Sc2ccccc2)c2ccc3c(c2)OCO3)cc1 system_name="MALME-3M melanoma" measure=TGI value_observed="> 100 µM"
compound="Clc1ccc2c(c1)CC1C[N+]3=C(CCCC3)C1=C2 (stereo not drawn)" system_name="MALME-3M melanoma" measure=TGI value_observed="> 100 µM"
compound=Cc1ccc(NC(=O)COC(=O)c2cccc3c(=O)c4ccccc4[nH]c23)cc1 system_name="MALME-3M melanoma" measure=TGI value_observed="> 100 µM"
compound="COc1cccc(C2C(C(=O)O)=C(CO)Oc3cc4c(cc32)OCO4)c1 (stereo not drawn)" system_name="MALME-3M melanoma" measure=TGI value_observed="> 100 µM"
compound=CC(=O)[O-].CC(=O)[O-].O=C(N/N=C/c1cc(Cl)cc(Cl)c1[OH2+])c1ccncc1.[Zn+2] system_name="MALME-3M melanoma" measure=TGI value_observed="> 100 µM"
compound=NC(N)=N/N=C(/c1ccccc1)c1ccc(Cl)cc1 system_name="MALME-3M melanoma" measure=TGI value_observed="> 100 µM"
compound=BrCCC[P+](c1ccccc1)(c1ccccc1)c1ccccc1 system_name="MALME-3M melanoma" measure=TGI value_observed="> 100 µM"
compound=COc1ccc(N(C)c2nc(Cl)nc3ccn(C)c23)cc1 system_name="MALME-3M melanoma" measure=TGI value_observed="> 100 µM"
compound=N#CC(C#N)=Cc1ccc(C=C2SC3=C(SCCS3)S2)s1 system_name="MALME-3M melanoma" measure=TGI value_observed="> 100 µM"
compound=O=c1c[n+](-c2ccccc2)[nH]o1 system_name="MALME-3M melanoma" measure=TGI value_observed="> 100 µM"
compound=O=NNc1cnccn1 system_name="MALME-3M melanoma" measure=TGI value_observed="> 1250 µM"
compound=O=C1Nc2ccccc2/C1=C/c1cn(C(=O)c2c(Cl)cccc2Cl)c2ccccc12 system_name="MALME-3M melanoma" measure=TGI value_observed="14.9 µM"
compound=COc1cc(C(=O)/C=C/c2c(-c3ccc(F)cc3)nc3ncccn23)cc(OC)c1OC system_name="MALME-3M melanoma" measure=TGI value_observed="58 µM"
compound="COC(=O)C1=COC2OC3/C(=C\\c4ccc(O)c(OC)c4)C(=O)OC34C=CC1C24 (stereo not drawn)" system_name="MALME-3M melanoma" measure=TGI value_observed="31 µM"
compound=COc1ccc(N2CCN(Cc3c(C(C)=O)[n+](=O)c4ccccc4n3[O-])CC2)cc1 system_name="MALME-3M melanoma" measure=TGI value_observed="60.6 µM"
compound="O=C1OC2c3ccccc3C(=O)C2(c2ccccc2)N1c1ccccc1 (stereo not drawn)" system_name="MALME-3M melanoma" measure=TGI value_observed="> 200 µM"
compound=O=C(N/N=C/C=C/c1ccc([N+](=O)[O-])o1)c1ccc(Br)s1 system_name="MALME-3M melanoma" measure=TGI value_observed="37.9 µM"
compound=C[N+](C)(C)Cc1c(CC#N)[nH]c2ccccc12 system_name="MALME-3M melanoma" measure=TGI value_observed="> 100 µM"
compound=NC(N)=NS(=O)(=O)c1ccc(Nc2c3ccccc3nc3c(C(=O)NC(CO)(CO)CO)cccc23)cc1 system_name="MALME-3M melanoma" measure=TGI value_observed="45.3 µM"
compound=O=C1/C(=C/c2ccc([N+](=O)[O-])o2)Oc2ccccc21 system_name="MALME-3M melanoma" measure=TGI value_observed="3.78 µM"
compound="NC(CCCCN=Cc1nc(-c2ccccc2)oc1O)C(=O)O (stereo not drawn)" system_name="MALME-3M melanoma" measure=TGI value_observed="> 100 µM"
compound=O=C1NC(N/N=C/c2ccccc2)=N/C1=C\c1cccs1 system_name="MALME-3M melanoma" measure=TGI value_observed="27.8 µM"
compound="Cc1ccc(S(=O)C[C@@]2(C(F)F)NC(=O)NC2=O)cc1 (stereo partly drawn)" system_name="MALME-3M melanoma" measure=TGI value_observed="> 100 µM"
compound="CC(=O)NC(CCCCNC(=O)OC(C)(C)C)C(=O)O (stereo not drawn)" system_name="MALME-3M melanoma" measure=TGI value_observed="> 100 µM"
compound=O=C1CSC(=S)N1Cc1cccnc1 system_name="MALME-3M melanoma" measure=TGI value_observed="25.6 µM"
compound=CCCCCCCCCCCCSC(=NC)NC system_name="MALME-3M melanoma" measure=TGI value_observed="3.97 µM"
